Reported ΔTm PHKG2 values are given for each entry in this list.
# assay.system: PHKG2 (Homo sapiens, UniProt P15735)
# Construct: purchased in-house DSF panel (SGC Frankfurt)
# Sequence (P15735 6-293): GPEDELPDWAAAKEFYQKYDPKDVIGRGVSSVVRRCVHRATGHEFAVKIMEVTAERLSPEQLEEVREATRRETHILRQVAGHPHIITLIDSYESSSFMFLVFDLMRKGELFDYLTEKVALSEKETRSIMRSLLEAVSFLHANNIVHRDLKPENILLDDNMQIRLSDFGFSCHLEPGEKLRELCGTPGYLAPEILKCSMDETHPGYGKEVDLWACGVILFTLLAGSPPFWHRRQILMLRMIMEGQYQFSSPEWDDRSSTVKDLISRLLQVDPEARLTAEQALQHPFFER
# assay.procedure: DSF
# Format: binding
Respond numerically; units are °C and should not be typed.

Solved entries:
INSERT INTO measurements (compound, value_measured) VALUES
  ('COC(=O)c1cc(Nc2ccnc(NCCOCCNC(=O)OC(C)(C)C)n2)[nH]n1 [21d]', 0.5),
  ('COC(=O)c1cc(Nc2ccnc(NCc3ccc(NC(=O)OC(C)(C)C)cc3)n2)[nH]n1 [21i]', -0.3);

(Q) Report ΔTm PHKG2 on PHKG2 (Homo sapiens, UniProt P15735) for this entry: CC(C)OC(=O)c1cc(Nc2ccnc(NCc3ccc(NC(=O)OC(C)(C)C)cc3)n2)n[nH]1 [42d]
(A) -0.2

(Q) Enter recorded ΔTm PHKG2 with PHKG2 (Homo sapiens, UniProt P15735) for CC(C)(C)OC(=O)Nc1ccc(CNc2nccc(Nc3cc(C(=O)OC(C)(C)C)[nH]n3)n2)cc1 [43d] here.
(A) 0.5

(Q) Check PHKG2 (Homo sapiens, UniProt P15735) data and give ΔTm PHKG2 for N#CCc1ccc(Nc2nccc(Nc3cc(C4CC4)[nH]n3)n2)cc1 [compound 1, reference compound] .
(A) 8.8

----------
EC50 by entry:
# assay.system: CDK3/Cyclin E1 (Homo sapiens)
# Construct: Full-length kinases were obtained as plasmids cloned in frame with a terminal NanoLuc-fusion; CS1810C171 (CCNE1)
# Sequence (Q00526 whole entry, the tested form may be a part): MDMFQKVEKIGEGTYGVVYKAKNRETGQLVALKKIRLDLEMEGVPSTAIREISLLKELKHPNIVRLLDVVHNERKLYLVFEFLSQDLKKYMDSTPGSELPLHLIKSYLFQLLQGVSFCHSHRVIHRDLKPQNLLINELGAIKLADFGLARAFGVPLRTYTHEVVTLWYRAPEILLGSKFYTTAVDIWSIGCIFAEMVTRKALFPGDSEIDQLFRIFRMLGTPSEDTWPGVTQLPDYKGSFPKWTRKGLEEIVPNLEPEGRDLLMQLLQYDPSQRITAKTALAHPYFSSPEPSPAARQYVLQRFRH
# Sequence (P24864 whole entry partner, the tested form may be a part): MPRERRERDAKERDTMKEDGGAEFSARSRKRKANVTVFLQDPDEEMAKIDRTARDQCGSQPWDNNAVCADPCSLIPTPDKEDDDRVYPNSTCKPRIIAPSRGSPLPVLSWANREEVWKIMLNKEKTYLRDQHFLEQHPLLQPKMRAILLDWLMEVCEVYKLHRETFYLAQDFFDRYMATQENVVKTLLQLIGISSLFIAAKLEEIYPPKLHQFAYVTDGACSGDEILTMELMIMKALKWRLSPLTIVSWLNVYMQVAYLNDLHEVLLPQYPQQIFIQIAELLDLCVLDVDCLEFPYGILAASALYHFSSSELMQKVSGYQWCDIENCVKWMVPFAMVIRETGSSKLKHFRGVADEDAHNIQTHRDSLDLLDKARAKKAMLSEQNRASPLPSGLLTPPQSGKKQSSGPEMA
# assay.procedure: NanoBRET
# experimental.parameters: read-out: NanoBRET EC50 ± SEM CDK3/Cyclin E1
Don't forget the unit after the value.

Worked examples follow.
INSERT INTO measurements (molecule, endpoint_name, value_measured) VALUES
  ('COC(=O)c1cc(Nc2ccnc(NCc3ccc(NC(=O)OC(C)(C)C)cc3)n2)[nH]n1 [21i]', 'EC50', '12400 nM'),
  ('CC(C)OC(=O)c1cc(Nc2ccnc(NCc3ccc(NC(=O)OC(C)(C)C)cc3)n2)n[nH]1 [42d]', 'EC50', '1270 nM'),
  ('CC(C)(C)OC(=O)Nc1ccc(CNc2nccc(Nc3cc(C(=O)OC(C)(C)C)[nH]n3)n2)cc1 [43d]', 'EC50', '2750 nM');

Next item in the queue.
(Q) For the molecule N#CCc1ccc(Nc2nccc(Nc3cc(C4CC4)[nH]n3)n2)cc1 [compound 1, reference compound] , give its reported EC50.
(A) 11.8 nM

----------
# assay.system: CDK11A/Cyclin K (Homo sapiens)
# Sequence (Q9UQ88 1-783): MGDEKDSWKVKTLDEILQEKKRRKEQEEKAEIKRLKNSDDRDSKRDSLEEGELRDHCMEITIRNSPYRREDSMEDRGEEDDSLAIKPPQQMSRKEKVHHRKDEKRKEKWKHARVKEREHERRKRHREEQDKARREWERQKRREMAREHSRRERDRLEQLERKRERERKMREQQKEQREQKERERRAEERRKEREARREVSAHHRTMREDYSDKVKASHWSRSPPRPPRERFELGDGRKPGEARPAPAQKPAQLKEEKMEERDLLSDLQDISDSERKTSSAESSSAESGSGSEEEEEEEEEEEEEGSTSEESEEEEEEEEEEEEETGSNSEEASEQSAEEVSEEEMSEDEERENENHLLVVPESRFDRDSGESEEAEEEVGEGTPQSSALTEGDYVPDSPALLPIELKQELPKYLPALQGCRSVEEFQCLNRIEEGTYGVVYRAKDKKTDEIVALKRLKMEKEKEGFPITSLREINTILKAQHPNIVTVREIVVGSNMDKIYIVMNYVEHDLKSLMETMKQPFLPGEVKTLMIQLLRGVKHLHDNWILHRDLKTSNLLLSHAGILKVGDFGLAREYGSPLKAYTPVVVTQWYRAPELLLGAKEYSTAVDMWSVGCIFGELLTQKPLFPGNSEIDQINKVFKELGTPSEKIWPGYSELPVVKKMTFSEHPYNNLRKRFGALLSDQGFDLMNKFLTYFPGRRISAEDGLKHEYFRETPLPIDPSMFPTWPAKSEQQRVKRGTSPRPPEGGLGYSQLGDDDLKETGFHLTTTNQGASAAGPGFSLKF
# assay.procedure: NanoBRET
# Assay type: cell-based
# experimental.parameters: read-out: NanoBRET EC50 ± SEM CDK11A/Cyclin K
Below, each entry is listed with its recorded pEC50.
Entry type: numeric. Quantity: pEC50, the -log10 of concentration in molar units.

INSERT INTO results (compound, value_measured) VALUES
  ('CC(C)(C)OC(=O)Nc1ccc(CNc2nccc(Nc3cc(C(=O)OC(C)(C)C)[nH]n3)n2)cc1 [43d]', 5.10);

(Q) Please report pEC50 for the following compound: N#CCc1ccc(Nc2nccc(Nc3cc(C4CC4)[nH]n3)n2)cc1 [compound 1, reference compound]
(A) 6.00

(Q) Provide only the value of recorded pEC50 for CC(C)OC(=O)c1cc(Nc2ccnc(NCc3ccc(NC(=O)OC(C)(C)C)cc3)n2)n[nH]1 [42d]
(A) 5.51

(Q) Item COC(=O)c1cc(Nc2ccnc(NCc3ccc(NC(=O)OC(C)(C)C)cc3)n2)[nH]n1 [21i] : provide pEC50
(A) 4.68
